Target Or Test System: BuChE (equine serum) (Equus caballus)
Construct: 0.11 mM for BuChE (equine serum); from tissue; host or cells: equine serum
Test Name: BuChE inhibition, Ellman's assay
Format: biochemical
Metric: IC50 (µM)
Note: unit µM is implicit; provide only the numeric part.

Exercise: What value of IC50 has been recorded for this entry: OC[C@H]1NC[C@H](O)[C@@H](O)[C@@H]1O [Compound 1-DNJ, 1-deoxynojirimycin, reference compound]
Solution: 10

---

Target Or Test System: β-galactosidase (Aspergillus Oryzae) (Aspergillus oryzae)
Construct: purchased
Sequence (Q2UCU3 19-1005): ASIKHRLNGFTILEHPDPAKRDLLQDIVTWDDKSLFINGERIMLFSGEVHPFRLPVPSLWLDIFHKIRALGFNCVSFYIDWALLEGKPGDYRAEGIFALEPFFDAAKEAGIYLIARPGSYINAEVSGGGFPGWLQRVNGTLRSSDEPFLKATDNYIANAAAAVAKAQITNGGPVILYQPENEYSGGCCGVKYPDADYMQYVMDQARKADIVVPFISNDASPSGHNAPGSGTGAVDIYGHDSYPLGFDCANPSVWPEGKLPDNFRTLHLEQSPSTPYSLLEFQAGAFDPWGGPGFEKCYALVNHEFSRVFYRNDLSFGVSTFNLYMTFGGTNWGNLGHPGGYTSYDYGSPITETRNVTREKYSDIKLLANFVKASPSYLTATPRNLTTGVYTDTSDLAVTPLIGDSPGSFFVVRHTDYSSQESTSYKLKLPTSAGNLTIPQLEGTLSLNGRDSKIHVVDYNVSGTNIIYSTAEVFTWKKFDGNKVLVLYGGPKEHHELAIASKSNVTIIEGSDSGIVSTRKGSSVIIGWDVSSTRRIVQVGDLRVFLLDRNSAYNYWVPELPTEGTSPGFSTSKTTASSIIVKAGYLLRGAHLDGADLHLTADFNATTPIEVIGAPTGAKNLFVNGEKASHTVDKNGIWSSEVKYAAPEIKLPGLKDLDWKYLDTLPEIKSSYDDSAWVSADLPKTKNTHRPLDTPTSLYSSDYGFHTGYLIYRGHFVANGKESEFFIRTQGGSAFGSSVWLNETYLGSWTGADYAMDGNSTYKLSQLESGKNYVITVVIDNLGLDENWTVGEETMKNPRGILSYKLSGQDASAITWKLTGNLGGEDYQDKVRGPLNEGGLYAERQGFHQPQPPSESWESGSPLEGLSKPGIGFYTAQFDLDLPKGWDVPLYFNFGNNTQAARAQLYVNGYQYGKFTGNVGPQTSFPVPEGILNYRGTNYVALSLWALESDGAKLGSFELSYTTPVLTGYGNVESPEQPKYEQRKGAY
Test Name: β-Galactosidase (A. oryzae) inhibition
Format: biochemical
Experimental Setup: Asp. Oryzae enzyme; read-out: IC50 β-Galactosidase (Asp. Oryzae)
Metric: IC50

Exercise: What value of IC50 has been recorded for this entry: OC[C@H]1NC[C@H](O)[C@@H](O)[C@@H]1O [Compound 1-DNJ, 1-deoxynojirimycin, reference compound]
Solution: > 100 µM

---

Target Or Test System: BuChE (equine serum) (Equus caballus, UniProt P81908)
Construct: 0.11 mM for BuChE (equine serum); from tissue; host or cells: equine serum
Sequence (P81908 whole entry): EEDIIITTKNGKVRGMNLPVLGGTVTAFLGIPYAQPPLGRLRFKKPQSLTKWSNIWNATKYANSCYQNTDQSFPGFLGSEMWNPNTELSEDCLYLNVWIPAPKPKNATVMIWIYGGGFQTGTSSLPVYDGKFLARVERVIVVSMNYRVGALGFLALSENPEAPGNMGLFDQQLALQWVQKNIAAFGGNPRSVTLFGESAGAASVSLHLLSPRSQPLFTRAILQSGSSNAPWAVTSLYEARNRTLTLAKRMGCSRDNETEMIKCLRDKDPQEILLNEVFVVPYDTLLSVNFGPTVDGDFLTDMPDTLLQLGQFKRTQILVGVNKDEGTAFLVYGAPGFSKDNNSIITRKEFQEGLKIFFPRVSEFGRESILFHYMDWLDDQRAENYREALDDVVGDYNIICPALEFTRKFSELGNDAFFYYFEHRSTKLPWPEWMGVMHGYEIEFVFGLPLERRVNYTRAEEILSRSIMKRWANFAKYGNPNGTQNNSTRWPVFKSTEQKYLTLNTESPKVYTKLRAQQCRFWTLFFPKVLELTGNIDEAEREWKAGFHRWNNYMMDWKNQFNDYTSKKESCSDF
Test Name: BuChE inhibition, Ellman's assay
Type: biochemical
Experimental Setup: binding to enzyme-substrate complex; read-out: Kib BuChE
Metric: pKi
Scale for pKi: -log10 of concentration given in mol/L; no unit attached.

Exercise: What value of pKi has been recorded for this entry: COc1cc(CCOCCCCCCN2C[C@H](O)[C@@H](O)[C@H](O)[C@H]2CO)ccc1O [Compound 11f]
Solution: 5.30

Exercise: What value of pKi has been recorded for this entry: COc1ccc(CCOCCCCCCN2C[C@H](O)[C@@H](O)[C@H](O)[C@H]2CO)cc1OC [Compound 11e]
Solution: 5.35

Exercise: What value of pKi has been recorded for this entry: OC[C@@H]1[C@@H](O)[C@H](O)[C@@H](O)CN1CCCCCCOCCc1ccc2c(c1)OCO2 [Compound 11g]
Solution: 5.04
